TESTED_SYSTEM: Muscarinic acetylcholine receptor M1 (Homo sapiens) (UniProt P11229)
Sequence (P11229 whole entry, looked up): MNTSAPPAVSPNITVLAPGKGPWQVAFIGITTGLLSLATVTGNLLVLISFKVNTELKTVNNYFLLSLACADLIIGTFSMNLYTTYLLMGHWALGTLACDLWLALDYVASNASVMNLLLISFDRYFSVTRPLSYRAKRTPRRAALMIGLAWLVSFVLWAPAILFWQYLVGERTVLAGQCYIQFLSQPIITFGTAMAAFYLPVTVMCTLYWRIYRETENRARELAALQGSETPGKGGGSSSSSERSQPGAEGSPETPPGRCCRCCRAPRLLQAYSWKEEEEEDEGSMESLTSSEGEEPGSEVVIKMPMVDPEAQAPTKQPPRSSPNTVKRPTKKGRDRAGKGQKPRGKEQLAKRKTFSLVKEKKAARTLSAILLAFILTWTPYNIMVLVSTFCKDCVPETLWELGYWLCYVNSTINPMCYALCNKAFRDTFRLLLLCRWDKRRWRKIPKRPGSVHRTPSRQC
PROTOCOL_DESCRIPTION: Cholinergic receptor muscarinic 1 (CHRM1) small molecule antagonists, cell-based qHTS assay (AID 1963588); note: nearly all actives have a fitted effect of over 40% in size
TEST_SETTINGS: CHRM1-CHO antagonist mode, calcium flux fluorescence; series mostly up to 61.5 µM
Results filed as inconclusive are left out. Activity calls are given as the source filed them. Calls come from the whole dose curve.
Possible outcomes: yes (1) = active, no (0) = inactive

MOLECULE	TESTED_SYSTEM	ASSIGNED_LABEL
COCC(=O)N(c1c(C)cccc1C)N1CCOC1=O	Muscarinic acetylcholine receptor M1 (Homo sapiens) (UniProt P11229)	no (0)
O=Cc1ccco1	Muscarinic acetylcholine receptor M1 (Homo sapiens) (UniProt P11229)	no (0)
CN(C)c1ccc(C(=O)c2ccc(N(C)C)cc2)cc1	Muscarinic acetylcholine receptor M1 (Homo sapiens) (UniProt P11229)	no (0)
CN(C)[C@@H]1C(=O)C(C(N)=O)=C(O)[C@@]2(O)C(=O)C3=C(O)c4c(O)cccc4[C@@](C)(O)[C@H]3[C@H](O)[C@@H]12	Muscarinic acetylcholine receptor M1 (Homo sapiens) (UniProt P11229)	no (0)
CCCCOCCOP(=O)(OCCOCCCC)OCCOCCCC	Muscarinic acetylcholine receptor M1 (Homo sapiens) (UniProt P11229)	no (0)
Cc1cccc(N)c1C	Muscarinic acetylcholine receptor M1 (Homo sapiens) (UniProt P11229)	no (0)
Cc1cccc([N+](=O)[O-])c1	Muscarinic acetylcholine receptor M1 (Homo sapiens) (UniProt P11229)	no (0)
CC(C)COC(=O)c1ccccc1C(=O)OCC(C)C	Muscarinic acetylcholine receptor M1 (Homo sapiens) (UniProt P11229)	no (0)
O=C(O)C(F)(F)C(F)(F)C(F)(F)C(F)(F)C(F)(F)C(F)(F)C(F)(F)F	Muscarinic acetylcholine receptor M1 (Homo sapiens) (UniProt P11229)	no (0)
CC(C=O)Cc1ccc2c(c1)OCO2 (stereo not drawn)	Muscarinic acetylcholine receptor M1 (Homo sapiens) (UniProt P11229)	no (0)
CCOC(=O)N(C)N=O	Muscarinic acetylcholine receptor M1 (Homo sapiens) (UniProt P11229)	no (0)
CCCC(C)(COC(N)=O)COC(N)=O	Muscarinic acetylcholine receptor M1 (Homo sapiens) (UniProt P11229)	yes (1)
c1ccc2c(c1)sc1ccccc12	Muscarinic acetylcholine receptor M1 (Homo sapiens) (UniProt P11229)	no (0)
CCCCn1cc[n+](C)c1	Muscarinic acetylcholine receptor M1 (Homo sapiens) (UniProt P11229)	no (0)
c1cc2c3c(cccc3c1)CC2	Muscarinic acetylcholine receptor M1 (Homo sapiens) (UniProt P11229)	no (0)
CCOC(=O)C(c1c(O)c2ccccc2oc1=O)c1c(O)c2ccccc2oc1=O	Muscarinic acetylcholine receptor M1 (Homo sapiens) (UniProt P11229)	no (0)
O=C(NCO)NCO	Muscarinic acetylcholine receptor M1 (Homo sapiens) (UniProt P11229)	no (0)
O=C(Cl)OCc1ccccc1	Muscarinic acetylcholine receptor M1 (Homo sapiens) (UniProt P11229)	no (0)
CC(C)c1ccc(NC(=O)N(C)C)cc1	Muscarinic acetylcholine receptor M1 (Homo sapiens) (UniProt P11229)	no (0)
CCOP(=S)(OCC)SCSc1cc(Cl)ccc1Cl	Muscarinic acetylcholine receptor M1 (Homo sapiens) (UniProt P11229)	no (0)
CCCCOC(=O)COC(=O)c1ccccc1C(=O)OCCCC	Muscarinic acetylcholine receptor M1 (Homo sapiens) (UniProt P11229)	no (0)
Cc1ccc(N=C=O)cc1N=C=O	Muscarinic acetylcholine receptor M1 (Homo sapiens) (UniProt P11229)	no (0)
CNC(=O)Oc1ccccc1C1OCCO1	Muscarinic acetylcholine receptor M1 (Homo sapiens) (UniProt P11229)	no (0)
CCOC(=O)c1cncn1C(C)c1ccccc1 (stereo not drawn)	Muscarinic acetylcholine receptor M1 (Homo sapiens) (UniProt P11229)	no (0)
CCCCCCCCCCCCBr	Muscarinic acetylcholine receptor M1 (Homo sapiens) (UniProt P11229)	no (0)
CCOP(=S)(OCC)SCCSCC	Muscarinic acetylcholine receptor M1 (Homo sapiens) (UniProt P11229)	no (0)
Nc1ccc(Cl)cc1	Muscarinic acetylcholine receptor M1 (Homo sapiens) (UniProt P11229)	no (0)
ClCc1ccccc1	Muscarinic acetylcholine receptor M1 (Homo sapiens) (UniProt P11229)	no (0)
OCC(O)CCl (stereo not drawn)	Muscarinic acetylcholine receptor M1 (Homo sapiens) (UniProt P11229)	no (0)
O=c1n(Cl)c(=O)n(Cl)c(=O)n1Cl	Muscarinic acetylcholine receptor M1 (Homo sapiens) (UniProt P11229)	no (0)
CN(C)N	Muscarinic acetylcholine receptor M1 (Homo sapiens) (UniProt P11229)	no (0)
CCCCCCCCCCBr	Muscarinic acetylcholine receptor M1 (Homo sapiens) (UniProt P11229)	no (0)
C=C(Cl)CCl	Muscarinic acetylcholine receptor M1 (Homo sapiens) (UniProt P11229)	no (0)
Nc1cccc(Cl)c1	Muscarinic acetylcholine receptor M1 (Homo sapiens) (UniProt P11229)	no (0)
O=NN(c1ccccc1)c1ccccc1	Muscarinic acetylcholine receptor M1 (Homo sapiens) (UniProt P11229)	no (0)
OC(O)C(Cl)(Cl)Cl	Muscarinic acetylcholine receptor M1 (Homo sapiens) (UniProt P11229)	no (0)
CCC[N+](=O)[O-]	Muscarinic acetylcholine receptor M1 (Homo sapiens) (UniProt P11229)	no (0)
CC(=O)CCC(C)=O	Muscarinic acetylcholine receptor M1 (Homo sapiens) (UniProt P11229)	no (0)
CCC(C)c1ccc(O)cc1 (stereo not drawn)	Muscarinic acetylcholine receptor M1 (Homo sapiens) (UniProt P11229)	no (0)
Nc1ccc(Cl)c(Cl)c1	Muscarinic acetylcholine receptor M1 (Homo sapiens) (UniProt P11229)	no (0)
O=[N+]([O-])c1cccc2ccccc12	Muscarinic acetylcholine receptor M1 (Homo sapiens) (UniProt P11229)	no (0)
CCN(C)N=O	Muscarinic acetylcholine receptor M1 (Homo sapiens) (UniProt P11229)	no (0)
CC(C)(OOC(C)(C)c1ccccc1)c1ccccc1	Muscarinic acetylcholine receptor M1 (Homo sapiens) (UniProt P11229)	no (0)

----------
PROTOCOL_DESCRIPTION: p53 small molecule agonists, cell-based qHTS assay (AID 1963582); for activation: % is set by controls: 0 for no effect and ±100 for the full control effect
TEST_SETTINGS: HCT-116 p53RE-bla reporter, beta-lactamase FRET ratio, 16 h; series mostly up to 66 µM
Inconclusive results are not listed. Active and inactive are the calls of the source. The call rests on the fitted dose curve; in most records, active means well fitted activation curve with a large enough effect in the signal ratio in the repeat runs (not every such curve was filed as active); inconclusive means weak or mixed curves; inactive means flat fitted curve, though single readings scatter; the % refers to the signal ratio.
Possible outcomes: active, inactive

MOLECULE	ASSIGNED_LABEL
CCCCCCC1CCOC1=O (stereo unspecified)	inactive
C=CCO	inactive
O=C(Cl)CCl	inactive
N#Cc1ccc(Cl)cc1	inactive
Nc1ccccc1Cl	inactive
O=S(=O)(c1ccccc1)c1ccccc1	inactive
C=C1CC[C@@]2(O)[C@H]3Cc4ccc(O)c5c4[C@@]2(CCN3CC2CC2)[C@H]1O5	inactive
Cn1c(N)nc2c3cccnc3ccc21	inactive
CN(C)C(=S)SSC(=S)N(C)C	inactive
Cc1ccc2cc(C)ccc2c1	inactive
O=C(Cl)OCCOCCOC(=O)Cl	inactive
ClCCN1CCOCC1	inactive
CN(C)CCc1ccc(O)cc1	inactive
CCc1cc(C)cc(CC)c1-c1c(OC(=O)C(C)(C)C)n2n(c1=O)CCOCC2	inactive
O=P1(N(CCCl)CCCl)NCCCO1 (stereo unspecified)	inactive
O=[N+]([O-])c1ccccc1O	inactive
CCCCOCCOP(=O)(OCCOCCCC)OCCOCCCC	inactive
C=CCCl	inactive
O=C(O)C1C2CCC(O2)C1C(=O)O (stereo unspecified)	inactive
Clc1ccc(C(c2ccc(Cl)cc2)C(Cl)(Cl)Cl)cc1	inactive
CCCCCc1cc(O)cc(O)c1	inactive
NC1(c2ccccc2)CCCCC1	inactive
O=S1OCC2C(CO1)C1(Cl)C(Cl)=C(Cl)C2(Cl)C1(Cl)Cl (stereo unspecified)	inactive
CCCC[N+]1(C)CCCC1 (tested in a mixture with another compound)	inactive
O=C(NC(=O)c1c(F)cccc1F)Nc1cc(Cl)c(OC(F)(F)C(F)C(F)(F)F)cc1Cl (stereo unspecified)	inactive
O=P(O)(Oc1ccccc1)Oc1ccccc1	inactive
C=CCc1ccccc1O	inactive
CNC(C)(C)Cc1ccccc1	inactive
Nc1c(Cl)c(Cl)nc(C(=O)O)c1Cl	inactive
O=[N+]([O-])c1cccc2ccccc12	inactive
O=P(O)(O)CCCl	inactive
NC(=S)c1c(Cl)cccc1Cl	inactive
CCCN(CCOc1c(Cl)cc(Cl)cc1Cl)C(=O)n1ccnc1	inactive
Nc1ccc(N=Nc2ccc(-c3ccc(N=Nc4c(S(=O)(=O)O)cc5cc(S(=O)(=O)O)c(N=Nc6ccccc6)c(O)c5c4N)cc3)cc2)c(N)c1	inactive
CCOP(=S)(OCC)Oc1cnc2ccccc2n1	inactive
CCC(C)(C#N)N=NC(C)(C#N)CC (stereo unspecified)	inactive
CC[C@H](N)c1ccccc1	inactive
O=[N+]([O-])c1ccccc1-c1ccccc1	inactive
CCOC(=O)C1(c2ccccc2)CCN(CCC(C#N)(c2ccccc2)c2ccccc2)CC1	active
Cc1ccc(N)cc1	inactive
OC[P+](CO)(CO)CO	inactive
